The following compounds are listed with their measured MIC AG038 MRSA values.
- Tested on: MRSA
- ASSAY_METHOD_TEXT: MIC by broth microdilution, MRSA isolates
- Type: cell-based
- CONDITION_DETAILS: clinical isolate AG038
VALUE_TYPE: MIC AG038 MRSA (µg/mL)

>>> value_reported("NCC1OC(OC2C(CO)OC(OC3C(O)C(N)CC(N)C3OC3OC4C(O)COC4C(O)C3N)C2O)C(N)C(O)C1O (stereo not drawn) [DC204]")
8
>>> value_reported("NC[C@@H]1O[C@H](O[C@H]2[C@@H](O)[C@H](O[C@@H]3[C@@H](O)[C@H](N)C[C@H](N)[C@H]3O[C@H]3O[C@H](CN)[C@@H](O)[C@H](O)[C@H]3O)O[C@@H]2CO)[C@H](N)[C@@H](O)[C@@H]1O [DC-119]")
2
>>> value_reported("NCC1OC(OC2C(CNC=O)OC(OC3C(O)C(N)CC(N)C3OC3OC(CO)C(O)C(O)C3N)C2O)C(N)C(O)C1O (stereo not drawn) [DC137]")
4
>>> value_reported("NC[C@H]1O[C@H](O[C@H]2[C@H](O[C@@H]3O[C@H](CN)[C@@H](O)[C@H]3O)[C@@H](O)[C@H](N)C[C@@H]2N)[C@H](N)[C@@H](O)[C@@H]1O [DC048]")
8
